// provenance: the RNAGym collection of RNA variant scans (doi:10.1101/gr.219683.116)

B1: mRNA-splicing (parent)
chain: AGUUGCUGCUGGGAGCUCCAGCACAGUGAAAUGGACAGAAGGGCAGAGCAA

Variants of: B1
Assay: exon inclusion enrichment index; higher = more inclusion; WT1 exon 5 minigene, HEK293
Measured Endpoint: exon inclusion enrichment index
Just the number, please.

Observe how each entry below is paired with its result.
1) G5U G8U C9U C16A U17G ... 0.0387
2) G5C C6U G8C C9U U10C G13C ... 0.822
3) G5A U7C G8A U10C A40C G41C ... 3.47
4) C6A U7C C9A U10C C44A ... 4.44
5) G5U G8U C9U G15C C16A ... 0.0947

exon inclusion enrichment index lookup needed for G5C C6A U7C G8A U10A C44A A45G , thanks.
0.213

exon inclusion enrichment index lookup needed for G5A U7C G8A U10C U32G , thanks.
0.244
